- METHOD_SUMMARY: in vitro
- Type: cell-based
- MEASUREMENT_CONTEXT: human
pEC50: −log10 of the molar value.
Give measured pEC50 for each item. Keep answers brief.

Item under review: COc1cc2c(cc1OC)CN(C(=O)CCC1CCCc3c(OC)cccc31)CC2 (centres unmarked) . Reported pEC50?
< 4.00

Can you share its pEC50? I mean this compound: "COc1ccc(CNCCCCc2cn(-c3ccc(F)cc3)c3ccccc23)cc1OC"
< 4.00

====

- METHOD_SUMMARY: Hemato-chemical parameters and tolerability in treated mice
- Format: in vivo
- MEASUREMENT_CONTEXT: blood after euthanasia day 21; i.p. treatment day 1, 7, 14; means ± SD, n = 8
Please provide measured AP for the entries that follow.
The answer is to be given in U/L; state only the numeric part.

Bench note: what AP did CN(C)C(=O)CCSC(SCCC(=O)O)c1cccc(/C=C/c2ccc3ccc(Cl)cc3n2)c1 (stereo not shown) [MK571, reference compound] show?
117

Using the record for "COc1cc2c(cc1OC)CN(CCCCc1cn(-c3ccc(F)cc3)c3ccccc13)CC2" , report its AP.
112

// lookup AP for "COc1ccc(CNCCCCc2cn(-c3ccc(F)cc3)c3ccccc23)cc1OC"
143

Using the record for N.N.[Cl][Pt][Cl] [Cis-Pt, cis-platinum, reference compound] , report its AP.
129
